Values were extracted from patent US20160222014A1.

target: Recombinant Src enzyme (Homo sapiens, UniProt P12931); construct: purchased Millipore 14-326; host or cells: Sf21 insect cells; assay: Src HTRF assay; assay type: biochemical
Sequence (P12931 whole entry): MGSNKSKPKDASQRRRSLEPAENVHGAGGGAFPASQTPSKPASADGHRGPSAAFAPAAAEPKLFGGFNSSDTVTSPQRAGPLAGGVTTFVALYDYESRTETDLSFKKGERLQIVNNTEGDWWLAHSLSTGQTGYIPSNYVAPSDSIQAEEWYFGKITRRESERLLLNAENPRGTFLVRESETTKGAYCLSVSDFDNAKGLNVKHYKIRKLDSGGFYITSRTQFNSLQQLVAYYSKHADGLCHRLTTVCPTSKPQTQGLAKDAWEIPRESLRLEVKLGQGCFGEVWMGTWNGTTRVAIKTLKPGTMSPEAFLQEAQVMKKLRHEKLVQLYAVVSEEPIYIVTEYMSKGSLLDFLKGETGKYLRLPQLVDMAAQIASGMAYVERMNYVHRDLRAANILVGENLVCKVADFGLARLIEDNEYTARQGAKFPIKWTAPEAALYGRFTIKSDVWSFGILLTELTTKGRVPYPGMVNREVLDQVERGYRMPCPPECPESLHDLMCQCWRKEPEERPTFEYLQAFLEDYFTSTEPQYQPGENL
measuredMetric: IC50

# example entries with known answers
COc1ccccc1S(=O)(=O)n1ncc2cnc(Nc3ccc4ncsc4c3)cc21 :: > 1000 nM
CN(c1ncccc1CN1CC(C)(C)c2cnc(Nc3ccc(N4CCNCC4)cc3)nc21)S(C)(=O)=O :: > 1000 nM
Cc1nn(Cc2ccccc2OC(F)F)c2cc(Nc3ccc4c(c3)CCC(=O)N4)ncc12 :: > 1000 nM
CN(C)C1CN(c2ccc(Nc3ncc4c(n3)N(S(=O)(=O)c3cccc5cccnc35)CC4(C)C)cc2)C1 :: > 1000 nM
COc1cc(N2CCNCC2)ccc1Nc1ncc2ccn(S(=O)(=O)c3ccccc3C#N)c2n1 :: > 1000 nM
CN(c1ncccc1Cn1ccc2cnc(Nc3ccc(N4CCOCC4)cc3)cc21)S(C)(=O)=O :: > 1000 nM

[Q] Find the recorded IC50 belonging to CNC1CCN(c2ccc(Nc3ncc4c(n3)N(S(=O)(=O)c3cccc5ccccc35)CC4(C)C)cc2)CC1 and report it.
[A] > 1000 nM

[Q] Find the recorded IC50 belonging to CN(c1ncccc1Cn1ccc2cnc(Nc3ccncc3)nc21)S(C)(=O)=O and report it.
[A] > 1000 nM
